# Tested on: Escherichia coli DC 0
# METHOD_SUMMARY: MIC, standard strain 8
# Type: cell-based
# CONDITION_DETAILS: DC0, E. coli DC 0, two-fold dilution, Muller Hinton agar, 10^7 CFU/ml, 37° C., 18 hours, read-out: Minimal Inhibitory Concentration(MIC)
REPORTED_ENDPOINT: MIC (µg/mL)

{"COMPOUND": "CO/N=C(\\C(=O)N[C@@H]1C(=O)N2C(C(=O)[O-])=C(C[n+]3ccc(-c4nc(C)cs4)c4c3CCC4)CS[C@H]12)c1csc(N)n1", "REPORTED_ENDPOINT": "MIC", "ENDPOINT_UNIT": "µg/mL", "MEASUREMENT": 25}
{"COMPOUND": "CC(C)(O/N=C(\\C(=O)N[C@@H]1C(=O)N2C(C(=O)[O-])=C(C[n+]3ccccc3)CS[C@H]12)c1csc(N)n1)C(=O)O [ceftazidime, reference compound]", "REPORTED_ENDPOINT": "MIC", "ENDPOINT_UNIT": "µg/mL", "MEASUREMENT": 98}
{"COMPOUND": "NC(=O)c1cc[n+](CC2=C(C(=O)[O-])N3C(=O)[C@@H](NC(=O)/C(=N\\OCCF)c4csc(N)n4)[C@H]3SC2)c2c1CCC2", "REPORTED_ENDPOINT": "MIC", "ENDPOINT_UNIT": "µg/mL", "MEASUREMENT": 49}
{"COMPOUND": "CO/N=C(\\C(=O)N[C@@H]1C(=O)N2C(C(=O)[O-])=C(C[n+]3ccc(NC=O)c4c3CCC4)CS[C@H]12)c1csc(N)n1", "REPORTED_ENDPOINT": "MIC", "ENDPOINT_UNIT": "µg/mL", "MEASUREMENT": 13}
{"COMPOUND": "CCOC(=O)c1cc[n+](CC2=C(C(=O)[O-])N3C(=O)[C@@H](NC(=O)/C(=N\\OC)c4csc(N)n4)[C@H]3SC2)c2c1CCC2", "REPORTED_ENDPOINT": "MIC", "ENDPOINT_UNIT": "µg/mL", "MEASUREMENT": 49}
{"COMPOUND": "CO/N=C(\\C(=O)N[C@@H]1C(=O)N2C(C(=O)[O-])=C(C[n+]3cccc4c3CCC4)CS[C@H]12)c1csc(N)n1 [cefpirome, reference compound]", "REPORTED_ENDPOINT": "MIC", "ENDPOINT_UNIT": "µg/mL", "MEASUREMENT": 49}

----------
# Test system: Streptococcus pyogenes A 308
# METHOD_SUMMARY: MIC, standard strain 1
# Format: cell-based
# CONDITION_DETAILS: A308, 18 h, read-out: Minimal Inhibitory Concentration(MIC)
# Protocol: In order to illustrate antibiotic effectiveness of the compounds of the present invention, the minimal inhibitory concentrations (MIC's) of the representative compounds were determined against standard strains and compared with ceftazidime and cefpirome, which were used as control compounds. […]
Parameter: MIC. Scope: all listed entries.

{"MOLECULE": "CO/N=C(\\C(=O)N[C@@H]1C(=O)N2C(C(=O)[O-])=C(C[n+]3ccc(NC(C)=O)c4c3CCC4)CS[C@H]12)c1csc(N)n1", "SUBJECT_OF_TEST": "Streptococcus pyogenes A 308", "ENDPOINT_UNIT": "µg/mL", "RELATION_OPERATOR": "<", "MIC": 2}
{"MOLECULE": "CC(C)(O/N=C(\\C(=O)N[C@@H]1C(=O)N2C(C(=O)[O-])=C(C[n+]3ccccc3)CS[C@H]12)c1csc(N)n1)C(=O)O [ceftazidime, reference compound]", "SUBJECT_OF_TEST": "Streptococcus pyogenes A 308", "ENDPOINT_UNIT": "µg/mL", "RELATION_OPERATOR": "=", "MIC": 98}
{"MOLECULE": "CCO/N=C(\\C(=O)N[C@@H]1C(=O)N2C(C(=O)[O-])=C(C[n+]3ccc(C(N)=O)c4c3CCC4)CS[C@H]12)c1csc(N)n1", "SUBJECT_OF_TEST": "Streptococcus pyogenes A 308", "ENDPOINT_UNIT": "µg/mL", "RELATION_OPERATOR": "=", "MIC": 13}
{"MOLECULE": "CO/N=C(\\C(=O)N[C@@H]1C(=O)N2C(C(=O)[O-])=C(C[n+]3ccc(C(N)=S)c4c3CCC4)CS[C@H]12)c1csc(N)n1", "SUBJECT_OF_TEST": "Streptococcus pyogenes A 308", "ENDPOINT_UNIT": "µg/mL", "RELATION_OPERATOR": "=", "MIC": 4}
{"MOLECULE": "CCOC(=O)c1cc[n+](CC2=C(C(=O)[O-])N3C(=O)[C@@H](NC(=O)/C(=N\\OC)c4csc(N)n4)[C@H]3SC2)c2c1CCC2", "SUBJECT_OF_TEST": "Streptococcus pyogenes A 308", "ENDPOINT_UNIT": "µg/mL", "RELATION_OPERATOR": "=", "MIC": 7}
